Reported melting point values for the following molecules.

Reference set (2 entries):
molecule	measurement-label	measured-result
OCCCN1CCC(c2noc3cc(F)ccc23)CC1	melting point	140 to 142 °C
Cc1ccc2c(c1)C(=O)N(CCN1CCC(c3noc4cc(F)ccc34)CC1)C2=O	melting point	138 to 140 °C

Problem: Recorded melting point for `CCc1ccc(OCCCN2CCC(c3noc4cc(F)ccc34)CC2)cc1OC.Cl` , please?
Solution: 150 to 152 °C

---

# System: CK-1 male mice
# test-description: Climbing mouse assay (apomorphine-induced climbing)
# Type: in vivo
# protocol-conditions: apomorphine 1.5 mg/kg sc challenge, climbing score vs control group set to 100%, linear regression
So basically: CLIMBING MOUSE ASSAY (ED50 mg/kg, ip) at 0.3 mg/kg or higher? That is rule met. Lower than 0.3 mg/kg? That is rule not met.

compound	assigned-label
Fc1ccc2c(C3CCN(CCC4COc5ccccc5O4)CC3)noc2c1 (centres unmarked)	rule not met
COc1cc(C(C)=O)ccc1OCCCCN1CCC(c2noc3cc(F)ccc23)CC1	rule met

Problem: State whether the measured CLIMBING MOUSE ASSAY (ED50 mg/kg, ip) reaches 0.3 mg/kg, counting equality as reaching it, for `COc1cc(C(C)=O)ccc1OCCCN1CCC(c2noc3cc(F)ccc23)CC1`
Solution: rule not met

Problem: State whether the measured CLIMBING MOUSE ASSAY (ED50 mg/kg, ip) reaches 0.3 mg/kg, counting equality as reaching it, for `CC(=O)c1ccc(CCCCN2CCC(c3noc4cc(F)ccc34)CC2)cc1`
Solution: rule met

Problem: State whether the measured CLIMBING MOUSE ASSAY (ED50 mg/kg, ip) reaches 0.3 mg/kg, counting equality as reaching it, for `COc1cc(C(C)=O)ccc1OCCCN1CCC(c2noc3ccccc23)CC1`
Solution: rule met

---

Reported melting point values for the following compounds.

Reference set (5 entries):
compound	melting point
O=C1c2ccccc2C(=O)N1CCCCN1CCC(c2noc3cc(F)ccc23)CC1	144 to 146 °C
Fc1ccc2c(C3CCN(CC4COc5ccccc5O4)CC3)noc2c1 (stereo not drawn)	86 to 87 °C
Nc1cccc(OCCCN2CCC(c3noc4cc(F)ccc34)CC2)c1	115 to 117 °C
O=C1c2cccc(F)c2C(=O)N1CCN1CCC(c2noc3cc(F)ccc23)CC1	142 to 143 °C
CC(=O)Nc1ccccc1OCCCN1CCC(c2noc3cc(F)ccc23)CC1	118 to 120 °C

Problem: Recorded melting point for `COc1cc(C(C)=O)ccc1OCCCN1CCC(c2n[nH]c3ccccc23)CC1` , please?
Solution: 171 to 173 °C

---

measurement-label: melting point

molecule	measurement-label	measured-result
COc1cc(C(C)O)ccc1OCCCN1CCC(c2nsc3cc(F)ccc23)CC1 (stereo not shown)	melting point	113 to 115 °C

Problem: Recorded melting point for `COc1cc(C(C)=O)ccc1OCCCN1CCC(c2nsc3ccccc23)CC1` , please?
Solution: 93 to 96 °C

Problem: Recorded melting point for `CC(=O)NCCN1CCC(c2noc3cc(F)ccc23)CC1.O=C(O)/C=C/C(=O)O` , please?
Solution: 132 to 133 °C

Problem: Recorded melting point for `COCCN1CCC(c2noc3cc(F)ccc23)CC1.O=C(O)/C=C/C(=O)O` , please?
Solution: 157 to 158 °C

Problem: Recorded melting point for `COc1cc(C(C)=O)ccc1OC/C=C/CN1CCC(c2noc3cc(F)ccc23)CC1` , please?
Solution: 91 to 93 °C

Problem: Recorded melting point for `CC(C)(CO)CN1CCC(c2noc3cc(F)ccc23)CC1.O=C(O)/C=C/C(=O)O` , please?
Solution: 144 to 145 °C

---

Reported melting point values for the following compounds.

Reference set (8 entries):
compound	melting point
Cl.Cl.NCCCN1CCC(c2noc3cc(F)ccc23)CC1	231 to 234 °C
COc1ccc(NC(C)=O)cc1OCCCN1CCC(c2nsc3cc(F)ccc23)CC1 [Example 74]	109 to 111 °C
CCOC(C)c1ccc(OCCCN2CCC(c3noc4cc(F)ccc34)CC2)c(OC)c1.Cl (stereo not shown)	139 to 141 °C
CC(=O)c1ccc2c(c1)oc(=O)n2CCCN1CCC(c2noc3cc(F)ccc23)CC1 [Example 94]	152 to 154 °C
COc1cc(C(C)=O)ccc1OC/C=C\CN1CCC(c2noc3cc(F)ccc23)CC1	57 to 59 °C
COc1cc(C(C)=O)ccc1OCCCN1CCC(c2n[nH]c3cc(F)ccc23)CC1 [Example 28]	202 to 204 °C
CCCCCCCCCC(=O)NCCN1CCC(c2noc3cc(F)ccc23)CC1.O=C(O)/C=C/C(=O)O	108 to 110 °C
COc1cc(C(C)=O)ccc1OCCN1CCN(c2n[nH]c3cc(Cl)ccc23)CC1 [Example 41]	154 to 156 °C

Problem: Recorded melting point for Fc1ccc2c(C3CCN(CCCCBr)CC3)noc2c1 [Example 114] , please?
Solution: 243 to 245 °C

Problem: Recorded melting point for `COc1cc(C(C)=O)ccc1OCCCN1CCC(c2nsc3cc(F)ccc23)CC1.Cl` , please?
Solution: 221 to 223 °C

Problem: Recorded melting point for CC(=O)c1ccc(NCCCN2CCC(c3noc4cc(F)ccc34)CC2)c(O)c1 [Example 111] , please?
Solution: 150 to 152 °C

Problem: Recorded melting point for COc1cc(C(C)=O)ccc1OCCN1CCN(c2nsc3ccccc23)CC1 [Example 39] , please?
Solution: 98 to 100 °C

Problem: Recorded melting point for `CCCCCCCCCC(=O)OCCCCN1CCC(c2noc3cc(F)ccc23)CC1.O=C(O)/C=C/C(=O)O` , please?
Solution: 109 to 110 °C

---

measurement-label: melting point

Reference set (3 entries):
molecule	melting point
CC(C)(O)CCN1CCC(c2noc3cc(F)ccc23)CC1.O=C(O)/C=C/C(=O)O	156 to 158 °C
COC(C)c1ccc(OCCCN2CCC(c3noc4cc(F)ccc34)CC2)c(O)c1 (stereo not shown)	98 to 100 °C
O=C1c2ccccc2C(=O)N1CCN1CCC(c2noc3cc(F)ccc23)CC1	148 to 149 °C

Problem: Recorded melting point for `CC(=O)c1ccc(OCCCN2CCC(c3nsc4cc(F)ccc34)CC2)c(O)c1` , please?
Solution: 135 to 137 °C

Problem: Recorded melting point for `CC(=O)OCCCCN1CCC(c2noc3cc(F)ccc23)CC1.O=C(O)/C=C/C(=O)O` , please?
Solution: 142 to 143 °C

Problem: Recorded melting point for COc1cc(C(C)O)ccc1OCCCCN1CCC(c2noc3ccccc23)CC1 (stereo not shown) , please?
Solution: 99 to 101 °C

Problem: Recorded melting point for `CC(=O)OC[C@H](C)CN1CCC(c2noc3cc(F)ccc23)CC1.O=C(O)/C=C/C(=O)O` , please?
Solution: 118 to 120 °C

---

Reported melting point values for the following molecules.

O=C1c2c(Cl)ccc(Cl)c2C(=O)N1CCN1CCC(c2noc3cc(F)ccc23)CC1 163 to 164 °C
COc1cc(C(C)=O)ccc1OCCCCN1CCC(c2n[nH]c3ccccc23)CC1 133 to 135 °C
Fc1ccc2c(C3CCN(CCC4OCCCO4)CC3)noc2c1.O=C(O)/C=C/C(=O)O 161 to 162 °C
O=C(O)/C=C/C(=O)O.OCCCCN1CCC(c2noc3cc(F)ccc23)CC1 131 to 132 °C
COc1cc(C(C)=O)ccc1OCCCCN1CCC(c2nsc3ccccc23)CC1 78 to 80 °C

We now examine a further molecule.
Problem: Recorded melting point for `Cl.Cl.NCCCCN1CCC(c2noc3cc(F)ccc23)CC1` , please?
Solution: 234 to 237 °C

---

Reported melting point values for the following compounds.

compound	melting point
O=C1c2cc(Cl)c(Cl)cc2C(=O)N1CCN1CCC(c2noc3cc(F)ccc23)CC1 [Example 151]	132 to 134 °C
CC(=O)c1ccc(OCc2ccccc2)c(OC/C=C/CN2CCC(c3noc4cc(F)ccc34)CC2)c1 [Example 85]	124 to 125 °C
Cl.O=C1[C@H]2CCCC[C@H]2C(=O)N1CCCN1CCC(c2noc3cc(F)ccc23)CC1	242 to 245 °C

Problem: Recorded melting point for `CC(=O)OCCN1CCC(c2noc3cc(F)ccc23)CC1.O=C(O)/C=C/C(=O)O` , please?
Solution: 154 to 155 °C

Problem: Recorded melting point for `CC(=O)OCCNCCN1CCC(c2noc3cc(F)ccc23)CC1.O=C(O)/C=C/C(=O)O` , please?
Solution: 116 to 118 °C

Problem: Recorded melting point for `CC(=O)c1ccc(O)c(OC/C=C/CN2CCC(c3noc4cc(F)ccc34)CC2)c1.Cl` , please?
Solution: 208 to 210 °C

Problem: Recorded melting point for COc1cc(C(C)=O)ccc1OCCCCN1CCN(c2n[nH]c3cc(Cl)ccc23)CC1 [Example 36] , please?
Solution: 189 to 191 °C
